# system.name: von Willebrand factor (VWF) (Homo sapiens, UniProt P04275 P04275:764-2813)
# protocol: filter; Bmax 49%; 2 mM CaCl2, 37 C
# protocol.conditions: tags: factor VIII free human purified VWF, Haematologic Technologies Inc; label: 5'-32P
# Procedure: Affinity constants (Kd values) were determined using double-filter nitrocellulose filter binding assays (Rusconi et al, Thromb. Haemost. $4:841-848 (2000)). All binding studies were performed in binding buffer F (20 mM HEPES, pH 7.4, 150 mM NaCl, 2 mM CaCl₂, and 0.01% BSA) at 37° C. […] The fraction of the nucleic acid-protein complex which bound to the nitrocellulose membrane was quantified with a phosphorimager (Molecular Dynamics, Sunnyvale, Calif.). […]
measured.attribute: Kd (nM)
Write it as a number; the unit nM goes unstated.

**Q:** Recall and state the measured Kd for ACGAACUGCCCUCGUAUUAUUUCGACGCACAGACGU (ssRNA, 2'-F C9,C10,C11,C26,C28,U36; rest 2'-OMe; 3' idT) [T89 vrt3] .
**A:** 63
